# System: Factor Xa
# assayProtocol: anti-heparin assay, % Factor Xa inhibition at single concentration (chromogenic substrate S-2765)
# Format: biochemical
# assayConditions: Single concentration (10 ug/ml)
Classes are defined on % FactorXa Inhibition with ranges low range = under 1%, mid range = from 1% up to 30%, high range = 30% and over

molecule | assignedClass
CC(C)(C)c1cc(NC(=O)c2cccc(C(=O)Nc3cc(C(C)(C)C)cc(NC(=O)[C@H](N)CCCNC(=N)N)c3SCCN)c2)c(SCCN)c(NC(=O)[C@H](N)CCCNC(=N)N)c1 [Compound 7] | mid range
CC(C)(C)c1cc(N)c(SCCN)c(NC(=O)c2cc(C(=O)Nc3cc(C(C)(C)C)cc(N)c3SCCN)c(OCCN)cc2OCCN)c1 [Compound 15] | mid range
N=C(N)NCCC[C@@H](N)C(=O)Nc1cccc(NC(=O)c2cc(C(=O)Nc3cccc(NC(=O)[C@H](N)CCCNC(=N)N)c3SCCN)c(OCCN)cc2OCCN)c1SCCN [Compound 26] | high range
CC(C)(C)c1cc(NC(=O)c2cccc(C(=O)Nc3cc(C(C)(C)C)cc(NC(=O)[C@H](N)CCCCN)c3SCCN)c2)c(SCCN)c(NC(=O)[C@H](N)CCCCN)c1 [Compound 4] | low range
CC(C)(C)c1cc(NC(=O)c2cc(OCCN)cc(C(=O)Nc3cc(C(C)(C)C)cc(NC(=O)[C@H](N)Cc4ccccc4)c3SCCN)c2)c(SCCN)c(NC(=O)[C@H](N)Cc2ccccc2)c1 [Compound 5] | high range
CC(C)(C)c1cc(N)c(SCCNC2=NCCN2)c(NC(=O)c2cccc(C(=O)Nc3cc(C(C)(C)C)cc(N)c3SCCNC3=NCCN3)c2)c1 [Compound 21] | mid range
CN(C)C(NCCSc1c(N)cc(C(C)(C)C)cc1NC(=O)c1cccc(C(=O)Nc2cc(C(C)(C)C)cc(N)c2SCCNC(N(C)C)=[N+](C)C)c1)=[N+](C)C [Compound 22] | mid range
NCCOc1cc(OCCN)c(C(=O)Nc2cccc(N)c2SCCN)cc1C(=O)Nc1cccc(N)c1SCCN [Compound 25] | low range
COC(=O)c1cc(NC(=O)c2cc(NC(=O)c3cc(NC(=O)c4cc(N)ccc4OC)ccc3OCCN)ccc2OC)ccc1OCCN [Compound 52] | high range
CC(C)(C)c1cc(NC(=O)CCCCNC(=N)N)c(SCCNC(=N)N)c(NC(=O)c2cccc(C(=O)Nc3cc(C(C)(C)C)cc(NC(=O)CCCCNC(=N)N)c3SCCNC(=N)N)c2)c1 [Compound 10] | mid range
N=C(N)NCCOc1cc(OCCNC(=N)N)c(C(=O)Nc2cccc(N)c2SCCNC(=N)N)cc1C(=O)Nc1cccc(N)c1SCCNC(=N)N [Compound 27] | mid range

src = patent US20140051762A1
